system: IGROV1 ovarian; assay: NCI tumour cell line growth inhibition, 48 h
GI50 values for the molecules below.

molecule	GI50
CNC(=O)c1ccccc1Nc1nc(Nc2ccc(N3CCOCC3)cc2OC)ncc1Cl	277 nM
Fc1ccc(Nc2ncnc3ccc(-c4cnc5[nH]ccc5c4)cc23)cc1Cl	450 nM
Cn1ccnc1C(=O)/C=C/c1ccc(CC(=O)Nc2ccc(Br)cc2)cc1	2970 nM
CNC(=O)c1cc(Oc2ccc3nc(NC(=O)Nc4ccc(Cl)c(C(F)(F)F)c4)sc3c2)ccn1	2020 nM
CC1(C)COC(c2ccc(C(F)(F)F)cc2C(O)c2ccc3ccccc3c2)=N1 (centres undefined)	> 100000 nM
COc1ccc(C2=CSc3cc(Cl)c(C)cc3S(=O)(=O)N2C(C)=O)cc1	36200 nM
CC(=O)[O][Hg][c]1c(N)c(C)cc(C)c1F	939 nM
COC(=O)Nc1nc2ccc(S(=O)c3ccccc3)cc2[nH]1 (centres undefined)	7510 nM
CC1=C(C#N)C23C(=O)c4ccccc4C(O)=C2C(=O)C=CC3(O)N1Cc1ccccc1 (centres undefined)	23900 nM

====

tested on: MDA-MB-435; experiment: NCI tumour cell line growth inhibition, 48 h

compound	TGI
CCCCS(=O)(=O)CCC(N)P(=O)(O)O (stereo not drawn)	> 100 µM
CC1=CC(=O)[C@@H](O)[C@]2(C)[C@H]3[C@@]4(O)OC[C@]35[C@H]([C@@H](C)[C@H]4O)[C@@H](OC(=O)C(C)(C)CO)C(=O)O[C@@H]5C[C@@H]12	1.65 µM
C=CC[C@H]1O[Si](C(C)(C)C)(C(C)(C)C)[C@H](C)[C@H]1C	> 100 µM
O=C1NC(N/N=C/c2ccccc2)=N/C1=C\c1ccco1	> 100 µM
Cn1c2ccc([N+](=O)[O-])cc2c(=O)n1Cc1ccccc1F	> 100 µM
O=c1c2cccnc2n2n1Cc1ccccc1C2	> 100 µM
Fc1ccc(Nc2ncnc3ccc(-c4cnc5[nH]ccc5c4)cc23)cc1Cl	> 80.1 µM
O=C1C=Cc2c(Br)sc(Br)c21	46.1 µM

====

tested on: SW-620 colon; experiment: NCI tumour cell line growth inhibition, 48 h

compound_structure	GI50
CCOC(=O)Nc1nc2ccc(OCC)cc2s1	4.25 µM
O=C(NCCNc1nccc(-c2c(-c3cccc(O)c3)nc3sccn23)n1)c1ccccc1O	5.86 µM
CN(C)c1ccc(-c2cc(-c3ccc(Nc4nc(Nc5ccc(Cl)cc5)nc(Nc5ccc(Cl)cc5)n4)cc3)no2)cc1	6.28 µM
O=C(Nc1ccc(I)cc1)c1cc([N+](=O)[O-])ccc1O	15.5 µM
COc1cc(C(=O)/C=C/c2sc(Cl)nc2Cl)cc(OC)c1OC	1.68 µM

====

system: KM12 colon; assay: NCI tumour cell line growth inhibition, 48 h
readout_name: GI50

compound	val
COc1cc2c(c(OC)c1O)C(=O)C(OC)C(c1ccc(O)c(O)c1)O2 (centres undefined)	515 nM
CCCCCCCCSC1=CC(=O)c2nc3ccccc3c3ccnc1c23	> 100000 nM
COc1cc(C(=O)/C=C/c2sc(Cl)nc2Cl)cc(OC)c1OC	1920 nM
NC(CSC(c1ccccc1)(c1ccccc1)c1ccc2c(c1)OCO2)C(=O)O (centres undefined)	605 nM

====

system: OVCAR-3 ovarian; assay: NCI tumour cell line growth inhibition, 48 h
Readings of TGI for the listed compounds
readout_name: TGI

compound	val
CCCCCCNC(=O)C(C)C1CCC2(C)C=CC(=O)C(C)=C2C1O (centres undefined)	> 100 µM
CCOc1ccccc1-n1c(CN2CCN(C(=O)COc3ccc(CNCCCCCCN4C5CCCC4CC(OC(=O)Nc4cc(C)ccc4OC)C5)cc3)CC2)nc2ccccc2c1=O (centres undefined)	3.49 µM
CC(=O)NC1=C(NCC(C)(C)C)C(=O)c2ccccc2C1=O	> 100 µM
COC(=O)Nc1nc2ccc(S(=O)c3ccccc3)cc2[nH]1 (centres undefined)	> 100 µM
Oc1ccc(Cl)cc1-c1cc(-c2ccccc2Cl)[nH]n1	> 100 µM
COc1ccc(/C=c2/sc3n(c2=O)C(c2ccccc2)C2(O)CCCCC2N=3)cc1 (centres undefined)	> 12.5 µM
CC[C@@]12CCCN3CC[C@]4(c5cccc(OC)c5N(C(C)=O)[C@@H]4CC1)[C@H]32	> 100 µM
Cc1nc2c(nc1C)C(=O)c1ccccc1C2=O	13.3 µM
O=[N+]([O-])c1cnc(Sc2ccncn2)s1	3.16 µM
O=C1NC(N/N=C/c2ccccc2)=N/C1=C\c1ccco1	> 100 µM
N/C(=N\N=C/c1ccc(O)c(O)c1O)NO	51 µM
O=C(Nc1ccccc1)OCCN=C1c2ccccc2C(Br)C(Br)c2ccccc21 (centres undefined)	15.8 µM
CSCCCN(CCCSC)CCCSC	> 100 µM
Cc1ccc(N=N/C(=N/NC(=O)c2cc(Cl)ccc2O)c2ccc(N(CCC#N)CCC#N)cc2C)cc1	55.9 µM
O=C(NC(=S)Nc1ccc(Br)cc1)c1ccc2c(c1)Sc1ccccc1S2	41.2 µM
COc1cc2cnc3c4cc(OC(C)C)c(OC)cc4ccc3c2cc1OC	> 100 µM
Clc1cccc(Cc2cn3cc(-c4ccccc4)nc3s2)c1Cl	> 100 µM
CC(=O)C(CN(C(C)C)C(C)C)C(c1ccccc1)c1c(O)c2ccccc2oc1=O (centres undefined)	> 100 µM
CC1(C)CCc2ccc(OCCC(=O)O)cc2O1	> 100 µM
C=C(C)[C@@H]1CCC2=C[C@@H](OC2=O)[C@@H](C(=C)C)C2=CC(C(=O)O)=C(C1)O2	> 100 µM
CC1(C)OC(=O)C(=Cc2ccc(O)cc2)C(=O)O1	> 100 µM
C=Cc1nc2c(Cl)ncnc2n1Cc1ccccc1	7.95 µM
Cn1c2ccc([N+](=O)[O-])cc2c(=O)n1Cc1ccccc1F	> 100 µM
C1=CC2C=CC(C=C1)P2c1ccccc1 (centres undefined)	> 100 µM
O=C(CCl)N1c2ccccc2Oc2ccc3ccccc3c21	2.64 µM
O=C(Nc1ccc(F)cc1F)c1cc(I)ccc1O	23.2 µM
O=C(NCCNc1nccc(-c2c(-c3cccc(O)c3)nc3sccn23)n1)c1ccccc1O	47.8 µM
Nc1cc2nc3ccccc3sc-2cc1=O	7.09 µM
CC(=O)Nc1oc(C)c(C)c1S(=O)(=O)c1ccc(Cl)cc1	> 100 µM
O=C1NC2(CCCCC2)C2CCCCC(O)C12 (centres undefined)	> 100 µM
Nc1ccc(C(=O)N/C(=C\c2ccc3c(c2)OCO3)c2nc3[nH]c(=S)[nH]c(=O)c3[nH]2)cc1	> 100 µM
NC(CCc1nc(-c2ccc(Cl)cc2)cs1)C(=O)O (centres undefined)	> 100 µM
CC1=C(C(=O)OCCO[N+](=O)[O-])C(c2cccc([N+](=O)[O-])c2)C(C(=O)OC(C)C)=C(C)N1 (centres undefined)	23.6 µM
O=[N+]([O-])C(=C(Cl)Cl)C(Cl)=C(Cl)Cl	2.24 µM
COC1(c2ccc(Cl)cc2)SC=C(C)n2c1noc2=O (centres undefined)	> 100 µM
O=C(Nc1ccc(I)cc1)c1cc([N+](=O)[O-])ccc1O	32.1 µM
CCCCCCCCSC1=CC(=O)c2nc3ccccc3c3ccnc1c23	> 100 µM
O=c1n(CC2CO2)c(=O)n(CC2CO2)n1CC1CO1 (centres undefined)	> 55.5 µM
COc1ccccc1CCN1CCN(CCCc2ccccc2)CC1	> 100 µM
CCOC(=O)Nc1nc2ccc(OCC)cc2s1	> 100 µM
CC1OC(OC2C(O[C@H]3CC[C@@H]4C(=CC[C@@H]5[C@@]4(C)C(=O)C[C@]4(C)[C@@H]([C@H](C)CC[C@@H](O)C(C)(C)O)CC[C@@]54C)C3(C)C)OC(CO)C(O)C2O)C(O)C(O)C1O (some centres undefined)	> 100 µM
Cc1cc(=O)n2[nH]c(-c3ccc(C(C)(C)C)cc3)cc2n1	43.5 µM
COc1ccc(-c2cc(-c3ccc(Nc4nc(Nc5ccccc5)nc(Nc5ccc(Cl)cc5)n4)cc3)nc(N)c2C#N)cc1	1.52 µM
COc1cc2c(cc1OC)[C@@H]1[C@H](C#N)C(=O)C(C)(C)N1CC2	> 100 µM
